Where these numbers come from: PubChem BioAssay (NCI)

Experiment: NCI Yeast Anticancer Drug Screen. Data for the mec2-1 strain (AID 157)
Details: S. cerevisiae mec2-1 strain, at 50.0 µM, hits give high values
This is part of a sample that, as a whole, favours compounds with a hit. Of some 79,000 tested, about 15% had one in any assay. Where a SMILES comes first, the peptide text is derived from it. [ ]: non-standard residue; d: D form. ξ: configuration not given here. ξV = CC(C)C(N)C(=O)O

# molecule, growth inhibition [%]
measured = [
    ("CC(C)=CCC1=C(O)[C@@](O)(CC=C(C)C)C(=O)C(C(=O)CC(C)C)=C1O", 7.95),
    ("C=C1C(=O)C23CC1C[C@H](OC(C)=O)C2C1(C)C(OC(C)=O)C[C@H](O)C(C)(C)[C@H]1C(O)[C@@H]3OC(C)=O (stereo partly drawn)", -3.85),
    ("Cc1cccc(C)c1Nc1nc(C)c(C(=O)CC(=O)C(=O)Nc2c(C(C)C)cccc2C(C)C)s1", -6.35),
    ("COc1ccccc1NS(=O)(=O)c1ccc2ncn(NS(=O)(=O)c3ccc(Cl)cc3)c(=O)c2c1", 15.7),
    ("CC#CC#C/C=C1/C=CC2(CC=CO2)O1 (stereo not drawn)", 7.95),
    ("NC(=O)c1cc[n+](-c2ccc([N+](=O)[O-])cc2[N+](=O)[O-])cc1", 0.45),
    ("OCCCOCc1ccccc1", 27.4),
    ("N#Cc1c2c(c(-c3cccs3)n(C3OC(CO)C(O)C(O)C3O)c1=S)CCc1ccccc1-2 (stereo not drawn)", -9.55),
    ("c1ccc(N=C2SC(=NC3CCCCC3)N(C3CCCCC3)C2=Nc2ccccc2)cc1", -18.9),
    ("O=C(O)CCC(=O)c1ccc2c3c(cccc13)CC2", 0.9),
    ("COc1cccc(OC(=O)Nc2cccc(Cl)c2)c1", 38.4),
    ("CC(C)OP(=O)(c1ccccc1)c1ccc2c(c1)OCCOCCOCCOCCO2 (stereo not drawn)", -2.2),
    ("O=C(Nc1ccccc1)c1ccccc1C(O)(c1ccccc1)c1ccc(Cl)cc1 (stereo not drawn)", 14),
    ("COc1ccc(C(NC(N)=O)c2cc3c(cc2OC(C)=O)OCO3)c(OC)c1 (stereo not drawn)", 4.65),
    ("CCC1(C)C(=O)c2ccccc2N(C)C1=O (stereo not drawn)", -10.1),
    ("C/C(=N\\N=C(/C)c1ccc(C)cc1)c1ccc(C)cc1", -30.3),
    ("CCCCC(C(=O)OCC)[N+](=O)[O-] (stereo not drawn)", -25.2),
    ("CCCC(=O)OCCOc1ccccc1", 2.3),
    ("NC(=O)NC(CCl)NC(N)=O", -5.8),
    ("O=c1oc2ccccc2c(O)c1Oc1ccccc1", 3.5),
    ("COc1ccc(CSC(=S)Nc2ccc(F)c(C)c2)cc1", 14.4),
    ("CC(C)C(N)C(=O)NCC(=O)NCC(=O)O (stereo not drawn) (H-[ξV]-Gly-Gly-OH)", -22.2),
    ("CCCCCCCN1C=CCC(S(=O)(=O)N2CCOCC2)=C1", -7.75),
    ("O=C(CCS(=O)(=O)CCC(=O)c1cccs1)c1cccs1", 10.3),
    ("COc1ccc(/C=C\\c2cc(OC)c(OC)c(OC)c2)cc1OC(=O)CC(N)C(=O)O (stereo not drawn)", -10.3),
    ("CCCCCCC(CC)C(N)=O (stereo not drawn)", 7.8),
    ("O=C1CCCc2ccccc21", -11.3),
    ("O=C1C2CCC(C2)C1CN1CCOCC1 (stereo not drawn)", 3.25),
    ("CCOC(=O)C(C(=O)OCC)C(C(=O)OCC)(C(=O)OCC)C(C(=O)OCC)C(=O)OCC", -9.15),
    ("CC(=O)Nc1ccc(S(=O)(=O)/C(=C\\c2ccc(Cl)o2)c2ccc([N+](=O)[O-])o2)cc1", 56.8),
    ("CCCCOCCC1CCNCC1", -44.1),
    ("Nc1cnccc1NCC(O)c1ccccc1 (stereo not drawn)", -5.9),
    ("N#Cc1c2c([nH]c(=O)c1C#N)CCCC2", 10.5),
]
